Sourced from the supplement of paper PMC9732359

Measured protein stability index values are reported for all entries that follow.
# test_summary: protein stability index of a GFP-peptide fusion (yeast GPS) (PSI 1-4); higher = more stable; sorted into four equal gates, so the index is relative within each strain
# condition_summary: doa10∆
Write the value as a bare number.

Worked examples follow.
chain_sequence	numeric_result
LLGEGESKLKIDPDTKA [RPB11]	2.93
HDFLFNTIIRDGSKMLK [RPN14]	2.05
PNVCNMKQYRDFLGVAS [PRP28]	1.99
PTSPNYSPTSPSYSPTS [RPO21]	2.78
ISKTTLTLDPRYIWRSL [RPN3]	2.75
HDISKTETSNEDEDEDD [SNU114]	3.02
DNNSKAEASFTFGTKHA [YLR335W/NUP2]	3.21

Turning now to a further sequence:
Kindly indicate its recorded protein stability index. Item: LYQLFKTCIQGINSPLS [YJL039C/NUP192]
1.83
